In this section we review reported melting point values for a set of compounds.
readout-label: melting point

[[record]]
compound = "CN(C)C1(c2ccccc2Cl)C(=O)N(Cc2ccc([N+](=O)[O-])cc2)c2ccc(Cl)cc21 (stereo not given)"
measured_value = "189 to 193 °C"

[[record]]
compound = "CC(C#Cc1ccc(Oc2ccc(F)cc2)s1)N(O)C(N)=O (stereo not given)"
measured_value = "149 to 150 °C"

[[record]]
compound = "COc1ccc([C@@H]2CCCC[C@H]2C#N)c(OC)c1OC (relative stereo)"
measured_value = "69 to 72 °C"

[[record]]
compound = "Cc1cc(Nc2ccnc(Nc3ccc(S(=O)(=O)N(Cc4ccco4)C4CCN(C)CC4)cc3)n2)ccc1F"
measured_value = "184 °C"

[[record]]
compound = "COc1ccc(Br)c(C(=O)N2CCN(S(=O)(=O)c3ccc(Cl)cc3)CC2)c1"
measured_value = "188 °C"


----------
readout-label: melting point

[[record]]
molecule = "CON=C1CN(c2c(F)c(N)c3c(=O)c(C(=O)O)cn(C4CC4)c3c2F)CC12CN(C(=O)OC(C)(C)C)C2"
measured_value = "256 to 257 °C"

[[record]]
molecule = "O=Cc1ccccc1-c1ccc(C(=O)Nc2ccc3cccnc3c2)cc1"
measured_value = "258 to 260 °C"

[[record]]
molecule = "Cn1cc(C(=O)Cl)c([N+](=O)[O-])n1"
measured_value = "68 to 70 °C"

[[record]]
molecule = "O=[N+]([O-])c1ccc(C2=NNC(=S)Cc3cc4c(cc32)OCO4)cc1"
measured_value = "257 to 258 °C"

[[record]]
molecule = "CCN(CC)C(=O)COC(=O)C(C)c1ccc2cc(OC)ccc2c1 (stereo not given)"
measured_value = "89 to 89.5 °C"

[[record]]
molecule = "O=Cc1cc2c3ccccc3oc2c2ccccc12"
measured_value = "123 to 125 °C"

[[record]]
molecule = "CCCCCCCCCC(=O)c1ccc(Br)cc1F"
measured_value = "31 to 32 °C"

[[record]]
molecule = "CS(=O)c1ccc(-c2cnn(CC(F)(F)F)c(=O)c2-c2ccc(Cl)cc2)cc1 (stereo not given)"
measured_value = "154 to 155 °C"

[[record]]
molecule = "CCOC(=O)c1cc2cc(CC#N)ccc2o1"
measured_value = "76 to 77 °C"

[[record]]
molecule = "CC1(C)CCOc2ccc(C(=O)c3ccc(C(=O)O)cc3)cc21"
measured_value = "199 °C"


----------
# melting point per record follows
readout-label: melting point

[[record]]
compound = "CNC(=O)Oc1ccc2c(c1)c1c(n2C)CC(CO)C1 (centres undefined)"
readout_label = "melting point"
measured_value = "137 to 138 °C"

[[record]]
compound = "ClCCN(CCCl)CCCCOc1cccc(Nc2c3ccccc3nc3ccccc23)c1"
readout_label = "melting point"
measured_value = "126 to 127 °C"

[[record]]
compound = "COc1ccc(Nc2ncc3ccc(=O)n(C(C)C)c3n2)cc1"
readout_label = "melting point"
measured_value = "170 °C"

[[record]]
compound = "COCCNC(=O)c1ccc(N2CCC(N3C(=O)OCc4ccccc43)CC2)c([N+](=O)[O-])c1"
readout_label = "melting point"
measured_value = "192 to 193 °C"

[[record]]
compound = "NC(=S)c1cccc(-c2cccc(C(N)=S)c2)c1"
readout_label = "melting point"
measured_value = "188 to 190 °C"

[[record]]
compound = "O=C1C(c2ccccc2)=C(c2ccccc2)C(=O)N1CCc1ccccc1"
readout_label = "melting point"
measured_value = "164 to 165 °C"

[[record]]
compound = "COc1ccc(-c2nnc3c4ccccc4c(Nc4cccc(C(=O)Nc5ccc(N(C)C)cc5)c4)nn23)cc1"
readout_label = "melting point"
measured_value = "314 to 318 °C"

[[record]]
compound = "Cc1nc(-c2cccc3c2C2(COc4cc5c(cc42)OCCO5)C(=O)N3C)cs1 (centres undefined)"
readout_label = "melting point"
measured_value = "219 to 220 °C"

[[record]]
compound = "O=C(O)c1ccccc1Oc1ccc2c(c1)CC[C@H](CNC[C@H](O)COc1ccccc1)O2"
readout_label = "melting point"
measured_value = "188 °C"

